assay_remarks: qHTS assay to identify small molecule agonists of the estrogen receptor alpha (ER-alpha) signaling pathway in the presence of an antagonist - cell viability counter screen (AID 1259386);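 further: cells exposed to compounds for 22 h at 37 °C before the viability read; on the % scale 0 is the no-effect control and ±100 the full control effect; nearly all actives have a fitted effect of over 30% in size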
assay_context: VM7Luc4E2 viability, CellTiter-Fluor fluorescence, 22 h; series mostly up to 92.4 µM
Inconclusive results are not listed. Active and inactive are the calls of the source. The call rests on the fitted dose curve; in most records, active means well fitted cell-killing curve with a large enough effect in the repeat runs; inconclusive means weak or mixed curves, or effect the other way; inactive means no such curve, though single readings can be large or run the other way.
endpoint_name: activity change, negative = cytotoxicity

Some compounds with recorded activity change, negative = cytotoxicity:
1) CC(C)(C)C(=O)c1ccccc1 | inactive
2) CCCOC(=O)CC | inactive
3) CC1=C(C/C=C(\C)CCC[C@H](C)CCC[C@H](C)CCCC(C)C)C(=O)c2ccccc2C1=O | inactive
4) CCCC(=O)O[C@]1(C(=O)CC)CC[C@H]2[C@@H]3CCC4=CC(=O)CC[C@]4(C)[C@H]3[C@@H](O)C[C@@]21C | inactive
5) CN1CC(=O)N/C1=N/C(=O)Nc1cccc(Cl)c1 | inactive
6) CCN[C@@H]1C[C@H](N)[C@@H](OC2OC(CN)=CCC2N)[C@H](O)[C@H]1O[C@H]1OC[C@](C)(O)[C@H](NC)[C@H]1O (stereo partly drawn) | 7.38% [at 0.349 µM] (inactive)
7) CCCCCCCCCCOc1cc2c(=O)c(C(=O)OCC)c[nH]c2cc1OCC | -3.47% [at 8.39 µM] (inactive)
8) CCCC(C)C(=O)OCC (stereo not drawn) | inactive

Hi, could you look up activity change, negative = cytotoxicity for each item in my list?
1. c1coc(CNc2ncnc3nc[nH]c23)c1
2. CCCCCCC#CC(=O)OC
3. NO
4. C=C[Si](OC(C)=O)(OC(C)=O)OC(C)=O
5. Cc1cccc(C)c1NC(=O)CC12CCCN1CCC2
6. NS(=O)(=O)Cc1noc2ccccc12
7. c1ccc2sc(SN3CCOCC3)nc2c1
8. Cc1nc(C2CCCCC2)c(-c2ccc(S(N)(=O)=O)c(F)c2)o1

["inactive", "inactive", "inactive", "inactive", "inactive", "inactive", "inactive", "inactive"]

Hi, could you look up activity change, negative = cytotoxicity for each item in my list?
1. CC(=O)Oc1cccc(C)c1
2. CC(=O)c1ccccc1[N+](=O)[O-]
3. Cc1ncc(COP(=O)(O)O)c(C=O)c1O
4. CCCCc1ccc2c(n1)[C@@H](c1ccc(OC)cc1C[C@H](C)C(=O)O)[C@H](C(=O)O)[C@H]2c1ccc2c(c1)OCO2
5. COc1ccccc1OCC1CNC(=O)O1 (stereo not drawn)
6. FB(F)F
7. CC(=O)Nc1ccc(OCC(O)CNC(C)C)cc1 (stereo not drawn)
8. O=C1NC(=O)C2CC=CCC12 (stereo not drawn)

1: inactive; 2: inactive; 3: inactive; 4: inactive; 5: inactive; 6: inactive; 7: inactive; 8: inactive

---

assay_remarks: qHTS assay to test for compound auto fluorescence at 460 nm (blue) in HEK293 cell free culture (AID 720681); further: on the % scale 0 is the no-effect control and ±100 the full control effect
assay_context: cell-free medium, autofluorescence 405/460 nm (blue); series mostly up to 91.3 µM
Active and inactive are the calls of the source. The call rests on the fitted dose curve; in most records, active means well fitted curve in the direction sought with a large enough effect in the repeat runs; inconclusive means weak or mixed curves; inactive means flat fitted curve, though single readings scatter.
endpoint_name: fluorescence, % of fluorescent control

Some compounds with recorded fluorescence, % of fluorescent control:
1. Cc1ccc(C(=O)Nc2ccc(S(=O)(=O)O)c3cc(S(=O)(=O)O)cc(S(=O)(=O)O)c23)cc1NC(=O)c1cccc(NC(=O)Nc2cccc(C(=O)Nc3cc(C(=O)Nc4ccc(S(=O)(=O)O)c5cc(S(=O)(=O)O)cc(S(=O)(=O)O)c45)ccc3C)c2)c1 | inactive
2. O=C(CO)[C@@H](O)[C@H](O)[C@H](O)CO | inactive
3. NCCCC(N)(C(=O)O)C(F)F (stereo not given) | inactive
4. CN(C)[C@@H]1C(=O)C(C(=O)NCN2CCCC2)=C(O)[C@@]2(O)C(=O)C3=C(O)c4c(O)cccc4[C@@](C)(O)C3C[C@@H]12 (stereo not given in full) | inactive

The compound identified as CN(C)CCCN(C)CCCN(C)C registered its fluorescence, % of fluorescent control at inactive

---

assay_remarks: qHTS assay to identify small molecule antagonists of the thyroid receptor (TR) signaling pathway (AID 743065); further: nearly all actives have a fitted effect of over 55% in size
assay_context: GH3.TRE-Luc, T3-stimulated luciferase inhibition, 23.5 h; series mostly up to 70.3 µM
Records with an inconclusive call do not appear. The source made the active and inactive calls. Calls come from the whole dose curve; as a rule, active = well fitted inhibition curve with a large enough effect in the repeat runs; inconclusive = weak or mixed curves; inactive = no such curve, though single readings can be large or run the other way.
Give one outcome, nothing more. List: yes = active, no = inactive

Below, 5 molecules whose answers are already recorded.
1. NS(=O)(=O)Cc1noc2ccccc12 | no
2. COC(=O)Nc1ccc(Cl)c(Cl)c1 | yes
3. O=C(O)CC(C(=O)O)S(=O)(=O)O (stereo unspecified) | no
4. CN(C)CCCN(C)CCCN(C)C | no
5. CCOC(=O)COc1cc(-n2ncc(C(F)(F)F)c(C)c2=O)c(F)cc1Cl | no

How was CCCCCCCCCCOc1cc2c(=O)c(C(=O)OCC)c[nH]c2cc1OCC classified in this test? no

How was NC(=O)N1c2ccccc2CC(=O)c2ccccc21 classified in this test? yes

---

assay_remarks: qHTS assay to identify small molecule antagonists of the peroxisome proliferator-activated receptor gamma (PPARg) signaling pathway - cell viability counter screen (AID 743194); further: on the % scale 0 is the no-effect control and ±100 the full control effect; nearly all actives have a fitted effect of over 55% in size
assay_context: PPARg-bla HEK293H viability, CellTiter-Glo luminescence, 17 h, co-treated with 50 nM rosiglitazone; series mostly up to 62.6 µM
Results filed as inconclusive are left out. The source made the active and inactive calls. The call rests on the fitted dose curve; in most records, active means well fitted cell-killing curve with a large enough effect in the repeat runs; inconclusive means weak or mixed curves, or effect the other way; inactive means no such curve, though single readings can be large or run the other way.
endpoint_name: activity change, negative = cytotoxicity

Some compounds with recorded activity change, negative = cytotoxicity:
1) CC(=O)N[C@H]1[C@H]([C@H](O)[C@H](O)CO)OC(C(=O)O)=C[C@@H]1N=C(N)N | inactive
2) CCCCCCCC1CCCC1=O (stereo unspecified) | inactive
3) Cc1nc(C2CCCCC2)c(-c2ccc(S(N)(=O)=O)c(F)c2)o1 | inactive
4) NC(N)=NCCN1CCCCCCC1 | 6.29% [at 0.55 µM] (inactive)
5) CCCCCC(=O)OCCc1ccccc1 | inactive

Hi, could you look up activity change, negative = cytotoxicity for each item in my list?
1. C[N+]1(C)CCCC(OC(=O)C(O)(c2ccccc2)c2ccccc2)C1 (stereo unspecified)
2. CCC(C)(CCCC(C)C)OC(C)=O (stereo unspecified)
3. CC(=O)c1cnccn1

["inactive", "inactive", "inactive"]

Hi, could you look up activity change, negative = cytotoxicity for each item in my list?
1. CC(C)NNC(=O)c1ccncc1
2. Cc1ccc(C(=O)c2ccccc2)cc1
3. CC(=O)O[C@@]12CO[C@@H]1C[C@H](O)[C@@]1(C)C(=O)[C@H](O)C3=C(C)[C@@H](OC(=O)[C@H](O)[C@@H](NC(=O)OC(C)(C)C)c4ccccc4)C[C@@](O)([C@@H](OC(=O)c4ccccc4)[C@H]21)C3(C)C

inactive
inactive
inactive

---

assay_remarks: Human pregnane X receptor (PXR) small molecule agonists, qHTS cell viability counter screen (AID 1346977); further: on the % scale 0 is the no-effect control and ±100 the full control effect; nearly all actives have a fitted effect of over 50% in size
assay_context: PXR-Luc HepG2 viability, CellTiter-Fluor, 24 h; series mostly up to 92.4 µM
Results filed as inconclusive are left out. Activity calls are given as the source filed them. Calls come from the whole dose curve; as a rule, active = well fitted cell-killing curve with a large enough effect in the repeat runs; inconclusive = weak or mixed curves, or effect the other way; inactive = flat fitted curve, though single readings scatter.
endpoint_name: activity change, negative = cytotoxicity

Some molecules with recorded activity change, negative = cytotoxicity:
1. CCC1C(=O)OCC1Cc1cncn1C (stereo not given) | inactive
2. NO | inactive
3. C=CN1CCCCCC1=O | inactive
4. Cc1nc(C2CCCCC2)c(-c2ccc(S(N)(=O)=O)c(F)c2)o1 | inactive
5. C[C@@H]1CCC[C@H](C)N1 | inactive
6. O=C(CO)[C@@H](O)[C@H](O)[C@H](O)CO | inactive
7. Nc1ccccn1 | inactive
8. COc1ccnc(CS(=O)c2nc3cc(OC(F)F)ccc3[nH]2)c1OC (stereo not given) | inactive

Hi, could you look up activity change, negative = cytotoxicity for each item in my list?
1. C[C@H]1C[C@H]2[C@@H]3CCC4=CC(=O)C=C[C@]4(C)[C@H]3C(=O)C[C@]2(C)[C@@]1(O)C(=O)CO
2. COCCOCC(OC)OC
3. Cc1onc(-c2c(Cl)cccc2Cl)c1C(=O)Cl
4. N[C@@H](CCC(=O)O)C(=O)O
5. CCOc1ccc2nc(S(N)(=O)=O)sc2c1

["inactive", "inactive", "inactive", "inactive", "inactive"]

Hi, could you look up activity change, negative = cytotoxicity for each item in my list?
1. O=C(CO)[C@@H](O)[C@H](O)[C@@H](O)CO
2. COC(=O)Nc1ccc(Cl)c(Cl)c1

1: inactive; 2: inactive

---

assay_remarks: A CellTox Green Cytotoxicity Assay to monitor cytotoxicity in HepG2 cells - 24 hour (AID 1224878); further: on the % scale 0 is the no-effect control and ±100 the full control effect; nearly all actives have a fitted effect of over 45% in size
assay_context: CellTox Green fluorescence; series mostly up to 76.8 µM
Results filed as inconclusive are left out. The source made the active and inactive calls. Calls come from the whole dose curve; as a rule, active = well fitted activation curve with a large enough effect in the repeat runs; inconclusive = weak or mixed curves; inactive = flat fitted curve, though single readings scatter.
endpoint_name: cytotoxicity

Some molecules with recorded cytotoxicity:
1. Cc1ncc([C@@H](CCCCCCc2ccc3c(n2)NCCC3)CC(=O)O)cn1 | inactive
2. C[C@H]1C[C@H]2[C@@H]3CCC4=CC(=O)C=C[C@]4(C)[C@H]3C(=O)C[C@]2(C)[C@@]1(O)C(=O)CO | inactive
3. CCOC(=O)COc1cc(-n2ncc(C(F)(F)F)c(C)c2=O)c(F)cc1Cl | inactive
4. CCCCCCCCN1CCCC1=O | inactive
5. O=C(O)CNC(=O)c1ccc(CO)o1 | inactive

Hi, could you look up cytotoxicity for each item in my list?
1. CCOC(=O)C(=O)CCCCCCl
2. [K+]

1: inactive; 2: inactive

Reference source for all entries: PubChem BioAssay (Tox21)
